Reference source for all entries: patent US20220306762A1

# test-system: T1, His-tagged cynomolgus monkey CD38 (ACRO Biosystems cat #CD8-05223) (cynomolgus monkey, UniProt Q5VAN0 43-301)
# T1 construct: bought recombinant protein with His tag
# assay: ELISA, coated His-CD38
measurement-label: ELISA 1 ug/ml
Answer using only a numeral; do not append any unit.

Exercise: Which ELISA 1 ug/ml reading was recorded for the binder 40769p1.2.B10 (scFv, V domains shown, tested as scFv-Fc supernatant) VH: EVQLLESGGGLVQPGGSLRLSCPASGFDFSSYWMTWVRQAPGKGLEWVSTITDSGGRAWYADSVRGRFTISRDNSKNTLYLQMNSLRAEDTAVYYCARDTPKTYYYYAMDVWGQGTTVTV VL: QSALTQPPSASGTPGQRVTISCSGSSSNIQYSYVSWYQQLPGTAPKLLIYNNVQRPSGVPDRFSGSKSGTSASLAISGLQSEDEADYYCATWDESLLGLWVFGGGTKLTVL ?
Key: 1.68

Exercise: Field entry: 40566p1.C9 (scFv, V domains shown, tested as scFv-Fc supernatant) VH: DVQLVESGGGVVRPGESLRLSCAASGFTFDNYDMTWVRQAPGEGLEWVSFISSRGTFTYYTDSVKGRFTISRDNSKNTLYLQMNSLRAEDTAIYYCTKDSGEYYFFDYWGLGTLVTVSS VL: ETVMTQSPATLSVSPGERATFSCRASQSVNSKLAWYQQKPGQAPRLLIYDASRRATGIPDRFSGSGSGTEFTLTISSLQSEDFAVYFCQQYYDWPPLTFGGGTKVEIK
Key: 1.66

Exercise: Field entry: 40769p1.1.A2 (scFv, V domains shown, tested as scFv-Fc supernatant) VH: EVQLLESGGGLVQPGGSLRLSCAASGFLFDDYGMSWVRQAPGKGLEWVSAISYKGGSTYYADSVKGRFTISRDNSKNTLYLQMSSLRAEDTAVYYCAKDHKWNYYGMDVWGQGTTVTVSS VL: QSVLTQPPSASGTPGQRVTISCSGSTSNIGNDNYVSWYQQLPGTAPRLLIYKDDQRPSGVPDRFSGSKSGTSASLAISGLQSEDEADYYCGTWDDRLNAWVFGGGTKLTVL
Key: 1.73

Exercise: Field entry: 40566p1.B3 (scFv, V domains shown, tested as scFv-Fc supernatant) VH: DVQLVESGGGVVRPGESLRLSCAASGFTFDNYDMTWVRQAPGEGLEWVSFISSRGTFTYYTDSVRGRFTISRDNSKNTLYLEMNSLRAEDTAIYYCAKDSGEYYFFDYWGLGTLVTVSS VL: EIVMTQSPATLSVSPGERATFSCRASQSVNSKLAWYQQKPGQAPRLLIYGASRRATGIPDRFSGSGSGTEFTLTISSLQSEDFAVYYCQQYYDWPPLTFGGGTKVEIK
Key: 1.81

Exercise: Field entry: 40566p1.F1 (scFv, V domains shown, tested as scFv-Fc supernatant; also called 40566p1.Fl) VH: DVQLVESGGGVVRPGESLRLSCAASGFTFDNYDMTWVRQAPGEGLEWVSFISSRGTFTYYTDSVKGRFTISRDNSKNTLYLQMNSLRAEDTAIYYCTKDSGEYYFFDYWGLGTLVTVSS VL: ETVMTQSPATLSVSPGERATFSCRASQSVNGKLAWYQQKPGQAPRLLIYDASRRATGIPDRFSGSGSGTEFTLTISSLQSEDFAVYYCQQYYDWPPLTFGGGTKVEIK
Key: 1.95
